B1: BCL2L13 (parent)
chain: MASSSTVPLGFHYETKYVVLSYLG

- Variants of: B1
- assay protocol: protein stability index of a GFP-peptide fusion (GPS, HEK-293T) (PSI 1-6); higher = more stable;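 also: lentivirally expressed fusions sorted by FACS into six bins by GFP to DsRed ratio, PSI derived from sequencing read proportions per bin multiplied by bin number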
- reported conditions: c terminus: a fixed tail appended
quantity kind: protein stability index

{"primary sequence": "MASSSTVPLGFHYETKYVQLSYLG", "reading": 1.71}
{"primary sequence": "MASSSTVPLGFHYETKYVVLPYLG", "reading": 2.35}
{"primary sequence": "MASSSTVPCGFHYETKYVVLSYLG", "reading": 3.98}
{"primary sequence": "MASSSTVPLGFHYETKYVVLSYLM", "reading": 1.84}
{"primary sequence": "MAFSSTVPLGFHYETKYVVLSYLG", "reading": 1.99}
{"primary sequence": "MASSSTVPLGFHYETKYVVLSYWG", "reading": 2.76}
{"primary sequence": "MASSSGVPLGFHYETKYVVLSYLG", "reading": 1.94}
{"primary sequence": "EASSSTVPLGFHYETKYVVLSYLG", "reading": 2.12}
{"primary sequence": "MASSSTVPLGFHYETKYVVFSYLG", "reading": 3.51}
{"primary sequence": "MASSSTVPLGFHYRTKYVVLSYLG", "reading": 2.14}
{"primary sequence": "MASSSYVPLGFHYETKYVVLSYLG", "reading": 2.66}
{"primary sequence": "MASSSTVPLGFHYETKYVVLIYLG", "reading": 2.36}
{"primary sequence": "MASSVTVPLGFHYETKYVVLSYLG", "reading": 2.17}
{"primary sequence": "MASDSTVPLGFHYETKYVVLSYLG", "reading": 2.74}
{"primary sequence": "MASSSTVPLGFHYETKYVMLSYLG", "reading": 3.27}
{"primary sequence": "MASSSTVPLGFHYETKQVVLSYLG", "reading": 1.84}
{"primary sequence": "MASSSTVPLGFHYETKSVVLSYLG", "reading": 1.66}
{"primary sequence": "MASSSTVPLGFCYETKYVVLSYLG", "reading": 3.05}
{"primary sequence": "MASSCTVPLGFHYETKYVVLSYLG", "reading": 2.11}
{"primary sequence": "MASSSTVPLGFHYVTKYVVLSYLG", "reading": 2.46}
{"primary sequence": "MASSSTVPLGFHYEVKYVVLSYLG", "reading": 3.06}
{"primary sequence": "MASSSTRPLGFHYETKYVVLSYLG", "reading": 2.33}
{"primary sequence": "MASSSTVPLGFRYETKYVVLSYLG", "reading": 1.91}
{"primary sequence": "MASSITVPLGFHYETKYVVLSYLG", "reading": 2.74}
{"primary sequence": "MDSSSTVPLGFHYETKYVVLSYLG", "reading": 2.56}
{"primary sequence": "MASSSTVPLGFHYDTKYVVLSYLG", "reading": 2.67}
{"primary sequence": "MASSSTVPLGFHLETKYVVLSYLG", "reading": 2.59}
{"primary sequence": "MASSSTVPLGFHNETKYVVLSYLG", "reading": 1.7}
{"primary sequence": "MASSSAVPLGFHYETKYVVLSYLG", "reading": 2.45}
{"primary sequence": "MASSSTVPLDFHYETKYVVLSYLG", "reading": 2.02}
{"primary sequence": "MASSSTVPLGFHYETKYVVLSYLN", "reading": 2.1}
{"primary sequence": "MASSSTVPLGFHDETKYVVLSYLG", "reading": 2.35}
{"primary sequence": "MASSSTVPLAFHYETKYVVLSYLG", "reading": 2.01}
{"primary sequence": "MASSSQVPLGFHYETKYVVLSYLG", "reading": 2.26}
{"primary sequence": "MASWSTVPLGFHYETKYVVLSYLG", "reading": 2.93}
{"primary sequence": "MASSSTVPLGFHYETKYVVLTYLG", "reading": 2.72}
{"primary sequence": "MASSSTVPLGFHYEWKYVVLSYLG", "reading": 2.05}
{"primary sequence": "MASSSTVPLGFHYETKYQVLSYLG", "reading": 1.37}
{"primary sequence": "VASSSTVPLGFHYETKYVVLSYLG", "reading": 2.12}
{"primary sequence": "MASYSTVPLGFHYETKYVVLSYLG", "reading": 2.38}
{"primary sequence": "MGSSSTVPLGFHYETKYVVLSYLG", "reading": 2.72}
{"primary sequence": "MASSSTVPLGFHYETKAVVLSYLG", "reading": 2.67}
{"primary sequence": "MASSSTVPLGIHYETKYVVLSYLG", "reading": 2.02}
{"primary sequence": "MASSSTVPLGFHYETKYVVCSYLG", "reading": 2.58}
{"primary sequence": "MASSSTVPLGFHYETKYVVLSYLA", "reading": 2.8}
{"primary sequence": "MASSSTVPLGFHKETKYVVLSYLG", "reading": 1.44}
